read-out: Apolipoprotein A-V (APOA5) gene, APOA5 (gene 116519); assay: LTEA_HepaRG_APOA5: Life Technologies and Expression Analysis (LTEA) Assay for Apolipoprotein A-V (APOA5) gene using HepaRG (AID 2283474); settings: mRNA level, 48 h; actives raise or lower the signal
The source made the active and inactive calls. How the source made its calls: active means hit-call score of the fitted dose curve at least 0.9, where 1 is the maximum; inactive means score below 0.9.
Please state which outcome applies, choosing from active, inactive

# count of solved cases: 8
COMPOUND	CLASS ASSIGNMENT
Clc1nc(Cl)nc(Nc2ccccc2Cl)n1	inactive
CC(C)=CC1C(C(=O)OCc2coc(Cc3ccccc3)c2)C1(C)C (stereo unspecified)	inactive
CCC(C)n1c(=O)[nH]c(C)c(Br)c1=O (stereo unspecified)	inactive
CCOc1cc(C(C)(C)C)ccc1C1COC(c2c(F)cccc2F)=N1 (stereo unspecified)	inactive
Cn1c(-c2ccccc2)cc(-c2ccccc2)[n+]1C	active
OC(c1ccc(Cl)cc1)(c1ccc(Cl)cc1)C(Cl)(Cl)Cl	active
C=C(C)CN(CC)c1c([N+](=O)[O-])cc(C(F)(F)F)cc1[N+](=O)[O-]	inactive
Cc1c(COC(=O)[C@@H]2[C@H](/C=C(\Cl)C(F)(F)F)C2(C)C)cccc1-c1ccccc1	inactive

*Q* Hey, what did the test say about "CNC(=O)Oc1cccc2ccccc12" ?
*A* inactive
